experimental_target: Gal(b1-4)GlcNAc(b1-2)[Gal(b1-4)GlcNAc(b1-6)]Man(a1-6)[GlcNAc(b1-4)][Gal(b1-4)GlcNAc(b1-2)Man(a1-3)]Man(b1-4)GlcNAc(b1-4)GlcNAc
assay_name: glycan array binding signal (z-score within array); higher = stronger binding
study_conditions: glycan notation: IUPAC condensed, linker removed
About 410 targets per protein were measured; listed, in parts, are those with the strongest signals and a random draw of the rest.

{"binder": "Gal 9 (Homo sapiens), O00182 (protein) MAFSGSQAPYLSPAVPFSGTIQGGLQDGLQITVNGTVLSSSGTRFAVNFQTGFSGNDIAFHFNPRFEDGGYVVCNTRQNGSWGPEERKTHMPFQKGMPFDLCFLVQSSDFKVMVNGILFVQYFHRVPFHRVDTISVNGSVQLSYISFQNPRTVPVQPAFSTVPFSQPVCFPPRPRGRRQKPPGVWPANPAPITQTVIHTVQSAPGQMFSTPAIPPMMYPHPAYPMPFITTILGGLYPSKSILLSGTVLPSAQRFHINLCSGNHIAFHLNPRFDENAVVRNTQIDNSWGSEERSLPRKMPFVRGQSFSVWILCEAHCLKVAVDGQHLFEYYHRLRNLPTINRLEVGGDIQLTHVQT", "glycan array binding signal (z-score)": 3.87}
{"binder": "Calsepa (Calystegia sepium), P93114 (protein) MAVPMDTISGPWGNNGGNFWSFRPVNKINQIVISYGGGGNNPIALTFSSTKADGSKDTITVGGGGPDSITGTEMVNIGTDEYLTGISGTFGIYLDNNVLRSITFTTNLKAHGPYGQKVGTPFSSANVVGNEIVGFLGRSGYYVDAIGTYNRHK", "glycan array binding signal (z-score)": 3.71}
{"binder": "B936 (Bifidobacterium sp) (protein) MKNWKKAIALVASAAALVSVAACGPSNAGGSSDSGKKTVGFVAVGPEGGFRTANEKDIQKAFEDAGFDLTYSPTQNNDQQKQIQAFNKFVNDEVDAIILSSTEDSGWDDSLKKAAEAEIPVFTVDRNVDVKDAEAKKAIVAHIGPSNVWCGEQAAEFVNKNFPDGANGFILEGPAGLSVVKDRGTGWGNKVASNVKVLESQSANWSTDEAKTVTAGLLDKYKSDNPQFIFAQNDEMGLGAAQAVDAAGLKGKVKIITIDGTKNALQALVDGDLSYVIEYNPIFGKETAQAVKDYLDGKTVEKDIEIESKTFDAASAKEALDNNTRAY", "glycan array binding signal (z-score)": -0.558}
{"binder": "PpFlo2 (Pichia pastoris) (protein) MGSSHHHHHHSSGLVPRGSHMDDSGNGDNSDTAYGCDITTNAVDGFDATIYQYNANDLRLIRDPTFMSTGYLGRNVLNKISGVTVPGFNIWNPSSRTATVYGVKNVNYYNMVLELKGYFKADVSGDYKLTLSHIDDSSMLFFGKETAFKCCDAGSIPLNEAPTDYSLFTIKPSNQVNSEVISATQYLEAGKYYPVRIVFVNALERARFDFKLTIPSGAVLDDFQNYIYQFGDLDENSCHE", "glycan array binding signal (z-score)": -0.297}
{"binder": "Clrb (Mus musculus) (protein) ITGATKTEQIPVNKTYAACPQNWIGVENKCFYFSEYPSNWTFAQAFCMAQEAQLARFDNQDELNFLMRYKANFDSWIGLHRESSEHPWKWTDNTEYNNTIPIRGEERFAYLNNNGISSTRIYSLRMWICSKLNSYSLHCQTPFFPSGTKHHHHHHHHG", "glycan array binding signal (z-score)": -0.157}
{"binder": "OVGAL11 (Ovis aries), AAF64320 (protein) MDSLPNPYLQSVSLTVCYMVKIKANLLSAFGKNPELQVDFGTGTGQGGNIPFRFWYCDGMVVMNTFTDGSWQKEEKVLTDAFVPGQPFELQFLVLEKEYQVFVKNKPICQFAHRLPLQSVKMLDVRGDIVLTSVDTL", "glycan array binding signal (z-score)": -0.095}
{"binder": "PhypaEULS3 (Physcomitrella patens) (protein) MLPVRLHCKADPNFNLAAVPGQGPVMVPFSPNDDFQVWYKDVTMSTRVKDETGSSAFSLINKATGQALRHAPEDLAQCLLADYDSNALDQTVLWTMSEDMGQGYCCIRLASQITRNLDVFRGDKKSGGVKEGSPVITFAWKKQDNQIWKMITAILEQKLISEEDLNSAVDHHHHHH", "glycan array binding signal (z-score)": -0.969}
